molecular target: T1, 人PD-L1 (on cells) (human, UniProt Q9NZQ7 19-290); assay: flow cytometry on IFNγ-stimulated A375 cells
T1 construct: whole, on cells; One molecule for human PD-L1 on CHO-hPD-L1, on IFNγ-stimulated A375 and on CHO-hPD-L1-OKT3 cells; the cell is named under assay; also called CHO-hPD-L1稳定细胞株; 稳定表达人PD-L1的CHO
T1 sequence (Q9NZQ7 19-290): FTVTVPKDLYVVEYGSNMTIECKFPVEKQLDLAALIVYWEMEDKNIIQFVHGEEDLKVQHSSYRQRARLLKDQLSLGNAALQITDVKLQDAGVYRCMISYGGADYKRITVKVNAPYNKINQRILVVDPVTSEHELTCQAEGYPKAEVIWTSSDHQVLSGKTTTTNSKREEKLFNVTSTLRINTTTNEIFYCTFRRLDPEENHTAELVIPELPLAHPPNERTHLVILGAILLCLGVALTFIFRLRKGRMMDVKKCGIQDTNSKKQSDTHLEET
readout name: EC50

Illustrative cases are given below, each with its answer.
| binder | EC50 |
| --- | --- |
| 176L3H2 (antibody, V domains shown, Whole humanized mAb expressed in 293 cells; detected with anti-human IgG; also called 抗人PD-L1人源化抗体176L3H2) VH: QVQLQESGPGLVKPSETLSLTCAVYGDSITSGYWNWIRKPPGKKLEYIGYISYTGSTYQNPSLKSRITMSRDTSKNQYYLKLSSVTAADTAVYYCARSRAWIRTYFDYWGQGTLVTVSS VL: EIVLTQSPDFQSVTPKEKVTITCSVSSSISSSNLHWYQQKPDQSPKPWIYGTSNLASGVPSRFSGSGSGTDYSLTINSLEAEDAATYYCQQWSSYPLTFGQGTKLEIKR | ~200 pM |
| 176L1H2 (antibody, V domains shown, Whole humanized mAb expressed in 293 cells; detected with anti-human IgG; also called 抗人PD-L1人源化抗体176L1H2) VH: QVQLQESGPGLVKPSETLSLTCAVYGDSITSGYWNWIRKPPGKKLEYIGYISYTGSTYQNPSLKSRITMSRDTSKNQYYLKLSSVTAADTAVYYCARSRAWIRTYFDYWGQGTLVTVSS VL: EIVLTQSPDFQSVTPKEKVTITCSVSSSISSSNLHWYQQKPDQSPKLWIYGTSNLASGVPSRFSGSGSGTDYTLTINSLEAEDAATYYCQQWSSYPLTFGQGTKLEIKR | ~200 pM |
| 176L2H2 (antibody, V domains shown, Whole humanized mAb expressed in 293 cells; detected with anti-human IgG; also called 抗人PD-L1人源化抗体176L2H2) VH: QVQLQESGPGLVKPSETLSLTCAVYGDSITSGYWNWIRKPPGKKLEYIGYISYTGSTYQNPSLKSRITMSRDTSKNQYYLKLSSVTAADTAVYYCARSRAWIRTYFDYWGQGTLVTVSS VL: EIVLTQSPDFQSVTPKEKVTITCSVSSSISSSNLHWYQQKPDQSPKPWIYGTSNLASGVPSRFSGSGSGTDYTLTINSLEAEDAATYYCQQWSSYPLTFGQGTKLEIKR | ~200 pM |
| 176L2H3 (antibody, V domains shown, Whole humanized mAb expressed in 293 cells; detected with anti-human IgG; also called 抗人PD-L1人源化抗体176L2H3) VH: QVQLQESGPGLVKPSETLSLTCAVYGDSITSGYWNWIRKPPGKKLEYIGYISYTGSTYQNPSLKSRITFSRDTSKNQYYLKLSSVTAADTAVYYCARSRAWIRTYFDYWGQGTLVTVSS VL: EIVLTQSPDFQSVTPKEKVTITCSVSSSISSSNLHWYQQKPDQSPKPWIYGTSNLASGVPSRFSGSGSGTDYTLTINSLEAEDAATYYCQQWSSYPLTFGQGTKLEIKR | ~200 pM |
| 176L4H1 (antibody, V domains shown, Whole humanized mAb expressed in 293 cells; detected with anti-human IgG; also called 抗人PD-L1人源化抗体176L4H1) VH: QVQLQESGPGLVKPSETLSLTCAVYGDSITSGYWNWIRKPPGKGLEYIGYISYTGSTYQNPSLKSRITMSRDTSKNQYYLKLSSVTAADTAVYYCARSRAWIRTYFDYWGQGTLVTVSS VL: DIQMTQSPSSLSASVGDRVTITCSVSSSISSSNLHWYQQKPGKAPKPWIYGTSNLASGVPSRFSGSGSGTDYTLTISSLQPEDFATYYCQQWSSYPLTFGQGTKLEIKR | ~200 pM |

Query: Which measured EC50 value corresponds to 176L1H3 (antibody, V domains shown, Whole humanized mAb expressed in 293 cells; detected with anti-human IgG; also called 抗人PD-L1人源化抗体176L1H3) VH: QVQLQESGPGLVKPSETLSLTCAVYGDSITSGYWNWIRKPPGKKLEYIGYISYTGSTYQNPSLKSRITFSRDTSKNQYYLKLSSVTAADTAVYYCARSRAWIRTYFDYWGQGTLVTVSS VL: EIVLTQSPDFQSVTPKEKVTITCSVSSSISSSNLHWYQQKPDQSPKLWIYGTSNLASGVPSRFSGSGSGTDYTLTINSLEAEDAATYYCQQWSSYPLTFGQGTKLEIKR ?
Result: ~200 pM

Query: Which measured EC50 value corresponds to 176L6H5 (antibody, V domains shown, Whole humanized mAb expressed in 293 cells; detected with anti-human IgG; also called 抗人PD-L1人源化抗体176L6H5) VH: EVQLQESGPGLVKPSETLSLTCAVYGDSITSGYWNWIRKPPGKGLEYMGYISYTGSTYQNPSLKSRITFSRDTSKNQYYLKLSSVTAADTATYYCARSRAWIRTYFDYWGQGTLVTVSS VL: EIVLTQSPDFQSVTPKEKVTITCSVSSSISSSNLHWYQQKPDQSPKLLIYGTSNLASGVPSRFSGSGSGTDFTLTINSLEAEDAATYYCQQWSSYPLTFGQGTKLEIKR ?
Result: ~200 pM

Query: Which measured EC50 value corresponds to 176L1H1 (antibody, V domains shown, Whole humanized mAb expressed in 293 cells, protein A purified; hIgG1 isotype control; detected with anti-human IgG; also called 抗人PD-L1人源化抗体176L1H1) VH: QVQLQESGPGLVKPSETLSLTCAVYGDSITSGYWNWIRKPPGKGLEYIGYISYTGSTYQNPSLKSRITMSRDTSKNQYYLKLSSVTAADTAVYYCARSRAWIRTYFDYWGQGTLVTVSS VL: EIVLTQSPDFQSVTPKEKVTITCSVSSSISSSNLHWYQQKPDQSPKLWIYGTSNLASGVPSRFSGSGSGTDYTLTINSLEAEDAATYYCQQWSSYPLTFGQGTKLEIKR ?
Result: ~200 pM

Query: Which measured EC50 value corresponds to 176L4H2 (antibody, V domains shown, Whole humanized mAb expressed in 293 cells; detected with anti-human IgG; also called 抗人PD-L1人源化抗体176L4H2) VH: QVQLQESGPGLVKPSETLSLTCAVYGDSITSGYWNWIRKPPGKKLEYIGYISYTGSTYQNPSLKSRITMSRDTSKNQYYLKLSSVTAADTAVYYCARSRAWIRTYFDYWGQGTLVTVSS VL: DIQMTQSPSSLSASVGDRVTITCSVSSSISSSNLHWYQQKPGKAPKPWIYGTSNLASGVPSRFSGSGSGTDYTLTISSLQPEDFATYYCQQWSSYPLTFGQGTKLEIKR ?
Result: ~200 pM

Query: Which measured EC50 value corresponds to 176L4H4 (antibody, V domains shown, Whole humanized mAb expressed in 293 cells; detected with anti-human IgG; also called 抗人PD-L1人源化抗体176L4H4) VH: QVQLQESGPGLVKPSETLSLTCSVYGDSITSGYWNWIRKPPGKKLEYMGYISYTGSTYQNPSLKSRITFSRDTSKNQYYLKLSSVTAADTAVYYCARSRAWIRTYFDYWGQGTLVTVSS VL: DIQMTQSPSSLSASVGDRVTITCSVSSSISSSNLHWYQQKPGKAPKPWIYGTSNLASGVPSRFSGSGSGTDYTLTISSLQPEDFATYYCQQWSSYPLTFGQGTKLEIKR ?
Result: ~200 pM
